Origin of the recorded values: ChEMBL document CHEMBL1938298

# assay.protocol: Metabolic stability in ddY mouse brain assessed as compound remaining at 185 kBq after 5 mins by radio-TLC
# Assay type: ADME, tissue-based
# conditions.used: read-out: Stability
assay.metric: remaining at 5 min (%)
Please give a number only; it is taken to be in %.

Ask | Could you tell me which remaining at 5 min is on file for CN1CCCC[C@H]1[C@@H](NC(=O)c1cccc(C(F)(F)F)c1[125I])c1ccccc1 ?
Reply | 92

* * *

# target.or.system: Sodium- and chloride-dependent glycine transporter 1 (Rattus norvegicus, UniProt P28572)
# Sequence (P28572 whole entry): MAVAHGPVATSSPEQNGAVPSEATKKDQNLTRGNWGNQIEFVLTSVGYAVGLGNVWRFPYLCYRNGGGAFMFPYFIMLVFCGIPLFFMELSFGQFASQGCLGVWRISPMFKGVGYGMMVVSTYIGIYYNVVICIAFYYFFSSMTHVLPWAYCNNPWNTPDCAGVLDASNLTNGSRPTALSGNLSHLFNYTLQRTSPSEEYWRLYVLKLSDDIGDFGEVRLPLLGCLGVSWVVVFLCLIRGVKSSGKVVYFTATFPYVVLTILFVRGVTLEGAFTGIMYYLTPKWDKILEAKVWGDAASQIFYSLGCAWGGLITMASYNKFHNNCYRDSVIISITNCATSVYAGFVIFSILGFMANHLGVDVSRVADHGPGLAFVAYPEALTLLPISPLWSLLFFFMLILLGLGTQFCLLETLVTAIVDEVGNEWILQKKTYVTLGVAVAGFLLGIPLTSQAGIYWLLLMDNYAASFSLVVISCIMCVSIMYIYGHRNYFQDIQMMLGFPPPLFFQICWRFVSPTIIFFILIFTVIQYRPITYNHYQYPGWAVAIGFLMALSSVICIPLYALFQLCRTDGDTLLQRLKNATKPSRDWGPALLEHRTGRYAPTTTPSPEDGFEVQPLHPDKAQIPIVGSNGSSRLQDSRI
assay.metric: Kd (nM)
Please give a number only; it is taken to be in nM.

Ask | Could you tell me which Kd is on file for CN1CCCC[C@H]1[C@@H](NC(=O)c1cccc(C(F)(F)F)c1[125I])c1ccccc1 ?
Reply | 1.58

* * *

# assay.protocol: Metabolic stability in ddY mouse brain assessed as compound remaining at 185 kBq after 60 mins by radio-TLC
# Assay type: ADME, tissue-based
# conditions.used: read-out: Stability
assay.metric: remaining at 1 h (%)
Please give a number only; it is taken to be in %.

Ask | Could you tell me which remaining at 1 h is on file for CN1CCCC[C@H]1[C@@H](NC(=O)c1cccc(C(F)(F)F)c1[125I])c1ccccc1 ?
Reply | 89

* * *

# assay.protocol: Lipophilicity, log D of the compound at pH 7.4
# Type: physicochemical
# conditions.used: buffer
assay.metric: logD
Answer using only a numeral; do not append any unit.

Ask | Could you tell me which logD is on file for CN1CCCC[C@H]1[C@@H](NC(=O)c1cccc(C(F)(F)F)c1[125I])c1ccccc1 ?
Reply | 2.86

* * *

# target.or.system: Sodium- and chloride-dependent glycine transporter 1 (Homo sapiens)
# Sequence (P48067 whole entry): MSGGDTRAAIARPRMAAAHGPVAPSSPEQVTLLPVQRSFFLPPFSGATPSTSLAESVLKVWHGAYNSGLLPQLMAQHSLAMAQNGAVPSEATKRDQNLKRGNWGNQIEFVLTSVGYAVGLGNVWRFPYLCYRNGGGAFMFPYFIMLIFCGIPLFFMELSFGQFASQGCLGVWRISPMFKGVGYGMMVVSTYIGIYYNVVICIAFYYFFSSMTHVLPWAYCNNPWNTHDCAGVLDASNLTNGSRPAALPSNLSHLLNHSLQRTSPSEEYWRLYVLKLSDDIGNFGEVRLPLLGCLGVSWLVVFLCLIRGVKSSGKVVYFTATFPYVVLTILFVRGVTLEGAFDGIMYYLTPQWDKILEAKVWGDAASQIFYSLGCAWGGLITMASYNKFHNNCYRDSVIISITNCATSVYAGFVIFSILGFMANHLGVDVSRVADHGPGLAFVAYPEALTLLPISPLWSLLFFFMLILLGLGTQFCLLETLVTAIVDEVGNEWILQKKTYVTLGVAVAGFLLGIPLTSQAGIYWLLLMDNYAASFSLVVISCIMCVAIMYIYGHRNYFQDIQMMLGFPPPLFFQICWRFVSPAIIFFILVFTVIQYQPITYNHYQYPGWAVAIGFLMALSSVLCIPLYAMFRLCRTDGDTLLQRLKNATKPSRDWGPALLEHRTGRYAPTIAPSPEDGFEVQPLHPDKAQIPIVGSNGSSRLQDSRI
# assay.protocol: Inhibition of GlyT1 in human JAR cells assessed as inhibition of [3H]glycine uptake preincubated for 1 mins measured after 2 hrs by liquid scintillation counting
# Format: cell-based
assay.metric: IC50 (nM)
Please give a number only; it is taken to be in nM.

* O=C(N[C@@H](c1ccccc1)[C@@H]1CCCCN1)c1cccc(C(F)(F)F)c1I | 43
* CN1CCCC[C@H]1[C@@H](NC(=O)c1cccc(C(F)(F)F)c1I)c1ccccc1 | 2.35

# context switch: different molecule, same IC50
Ask | Could you tell me which IC50 is on file for O=C(N[C@@H](c1ccccc1)[C@@H]1CCCCN1)c1cccc(C(F)(F)F)c1Cl ?
Reply | 80.1
